Test system: U2OS
Assay Comment: Multiplex assay against U2OS
Assay type: toxicity, cell-based
Stated Conditions: human, 48 h, 1 µM, compound concentration 1 uM, replicate 1
Assay Readout: Population Normal (%)
Respond numerically; units are % and should not be typed.

Worked examples follow.
>  <Compound>
CC(C)(O)CNc1ncc(-c2ccnc(Nc3ccnc(Cl)c3)n2)c(CC2CC2)n1

>  <Uom>
%

>  <Population Normal (%)>
97

$$$$
>  <Compound>
C[C@@H](NCCCc1cccc(C(F)(F)F)c1)c1cccc2ccccc12.Cl [CINACALCET HYDROCHLORIDE]

>  <Uom>
%

>  <Population Normal (%)>
97

$$$$
>  <Compound>
O=C1NCN(c2ccccc2)C12CCN(CCCOc1ccc(F)cc1)CC2 [SPIRAMIDE]

>  <Uom>
%

>  <Population Normal (%)>
95

$$$$

Let us examine a further case.
Query: Entry under review: CN(C)CC#Cc1ccc(OCCCc2sc(N3CCc4cccc(C(=O)Nc5nc6ccccc6s5)c4C3)nc2C(=O)O)c(F)c1 . Reported Population Normal (%)?
Reply: 89
